# System: K-562 leukemia
# ASSAY_NAME: NCI tumour cell line growth inhibition, 48 h
PARAMETER_MEASURED: TGI

1. CCOC(=O)c1cc(=O)n(C)c(=O)n1C = > 100 µM
2. O=C(O)c1ccc2c(c1)C(=O)N(c1ccc(S(=O)(=O)c3ccc(N4C(=O)c5ccc(C(=O)O)cc5C4=O)cc3)cc1)C2=O = > 100 µM
3. C=C1N(S(=O)(=O)c2ccc(C)cc2)C(=O)OCC12CCCC2 = > 100 µM

For each entry beneath this line, provide reported TGI.
1. CC(=O)[O-].CC(=O)[O-].O=C(N/N=C/c1cc(Cl)cc(Cl)c1[OH2+])c1ccncc1.[Mn+2]
2. Cc1ccc(N2C(=O)C3c4[nH]c5ccc(C)cc5c4C4CCC(C(C)(C)C)CC4C3C2=O)cc1 (stereo unspecified)
3. COc1ccc2c(c1)CCc1c-2[nH]c2cc3c(cc2c1=O)OCO3
4. COc1cc(OCc2ccccc2)c2c(CCC(=O)O)cc(=O)oc2c1 (tested in a mixture with another compound)
5. CSC1=NN(C(C)=O)C(C(OC(C)=O)C(OC(C)=O)C(OC(C)=O)C(COC(C)=O)OC(C)=O)S1 (stereo unspecified)
6. Cc1cc(=O)oc2c1cc1ccc3cccc4ccc2c1c34
7. C=C(COCO)C(C)=O
8. Cc1cccc(NC(=O)C(=O)C(C2OC(=O)c3ccccc32)[N+](=O)[O-])c1C (stereo unspecified)

Resp:
1. 14.8 µM
2. 16.1 µM
3. > 100 µM
4. > 100 µM
5. > 100 µM
6. > 100 µM
7. > 27 µM
8. 39.7 µM
